tested on: K-562 leukemia; experiment: NCI-60 one-dose screen, 48 h; details: 10 µM unless noted
Compounds without any hit were thinned out: in the full panel of roughly 83,000, 20% have a hit. Calls of active or inactive are those of the source. The calls were made as follows: active = growth percent below 10; inactive = the rest.
Labels: YES (active), NO (inactive)

[[record]]
compound = "CC1(C)CC[C@]23CC[C@]4(C)[C@H](CC[C@@H]5[C@@]6(C)C/C(=C/c7ccncc7)C(=O)C(C)(C)[C@@H]6CC[C@]54C)[C@H]2[C@H]1OC3=O"
category_label = "NO"

[[record]]
compound = "C=C(C)[C@@H]1CC[C@]2(C(=O)NCCNCCNCCN)CC[C@]3(C)[C@H](CC[C@@H]4[C@@]5(C)CC[C@H](O)C(C)(C)[C@@H]5CC[C@]43C)[C@@H]12"
category_label = "YES"

[[record]]
compound = "O=c1[nH]c2cc(Cl)c(Cl)cc2n2cc3ncccc3c12"
category_label = "NO"

[[record]]
compound = "COc1ccc(NC(=O)Nc2ccc(-c3cccnc3)cc2N2CCC(CO)CC2)cc1"
category_label = "NO"

[[record]]
compound = "Cc1ccc(-c2cn(C/C=C3\\C=CN(S(=O)(=O)c4ccccc4)CC3)nn2)cc1"
category_label = "NO"

[[record]]
compound = "CCN=Cc1c(O)c(O)c(C(C)C)c2cc(C)c(-c3c(C)cc4c(C(C)C)c(O)c(O)c(C=NCC)c4c3O)c(O)c12"
category_label = "NO"

[[record]]
compound = "O=C1CC(c2ccccc2)Cc2nc3ccc(Br)cc3cc21 (stereo not given)"
category_label = "YES"

[[record]]
compound = "O=C(Oc1ccc(Cl)cc1[N+](=O)[O-])Oc1ccc(Cl)cc1[N+](=O)[O-]"
category_label = "NO"

[[record]]
compound = "CC1=CC[C@@H]2C(C)(C)C(=O)CC[C@@]2(C)[C@@H]1COc1ccc2ccc(=O)oc2c1"
category_label = "NO"

[[record]]
compound = "O=C(NCCCNC(=O)OCc1ccc2cccc(O)c2n1)OCc1ccc2cccc(O)c2n1"
category_label = "NO"

[[record]]
compound = "Cn1ncc2c(Nc3ccc(O)cc3)nc(Cl)nc21"
category_label = "NO"

[[record]]
compound = "CCOC(=O)c1nn(C2CCCCO2)c2ccc(NC(=O)Cn3nnc4ccccc43)cc12 (stereo not given)"
category_label = "NO"

[[record]]
compound = "Cc1ccc(S(=O)(=O)Oc2ccc(Br)cc2Br)cc1"
category_label = "NO"

[[record]]
compound = "CCCCCC1CCCCN1C(=O)OCCCC (stereo not given)"
category_label = "NO"

[[record]]
compound = "O=C(Nc1cccc(F)c1)c1cc(=O)[nH]c2cc(Br)ccc12"
category_label = "NO"

[[record]]
compound = "Cc1ccc2c(c1)C(C)Cc1c(Cl)ncnc1N2C (stereo not given)"
category_label = "NO"

[[record]]
compound = "Cc1cc2c(C(C)C)c(O)c(O)c(C=NCc3ccoc3)c2c(O)c1-c1c(C)cc2c(C(C)C)c(O)c(O)c(C=NCc3ccco3)c2c1O"
category_label = "YES"

[[record]]
compound = "CCN1CCN(CC(=O)Nc2nc3ccc(NCc4ccc(Cl)cc4)cc3s2)CC1"
category_label = "YES"

[[record]]
compound = "Nc1nc(SCc2cccc([N+](=O)[O-])c2)c2[nH]cnc2n1"
category_label = "NO"

[[record]]
compound = "CCN(CCNc1ccc(C)c2sc3cc(Cl)ccc3c(=O)c12)CC(C)O (stereo not given)"
category_label = "YES"

[[record]]
compound = "C#CC(OC(=O)N(C)C)(c1ccccc1)c1ccc(F)cc1 (stereo not given)"
category_label = "NO"

[[record]]
compound = "Clc1ccc(/C=N/Nc2nc3ccccc3s2)c(Cl)c1"
category_label = "NO"

[[record]]
compound = "CN(C)c1ccc(-c2ccc(-c3ccc(C(=N)N)cc3)s2)cc1"
category_label = "YES"

[[record]]
compound = "Nc1cc(Cl)cc2cccnc12"
category_label = "NO"

[[record]]
compound = "NC1=NC(=O)NC1(c1ccccc1)c1ccccc1"
category_label = "NO"


====

Test system: SNB-19 CNS
Assay: NCI-60 one-dose screen, 48 h
Details: 10 µM unless noted
Experimental: Growth inhibition of the SNB-19 human tumor cell line is measured as a screen for anti-cancer activity. Cells are grown in 96 well plates and exposed to the test compound for 48 hours. Compounds are tested at a single concentration, which is 10^-5 M for most compounds. The reported endpoint is percent growth (GI% or GIPRCNT), where numbers from 0 - 100% represent growth inhibition, and numbers from -100% - 0 represent cell death. For example, a value of 40 represents 60% growth inhibition. […]
Compounds without any hit were thinned out: in the full panel of roughly 83,000, 20% have a hit. Activity calls are given as the source filed them. Rule for the calls: active = growth percent below 10; inactive = the rest.
Labels: active, inactive

[[record]]
compound = "CC(=O)CC(=O)SC1=NCCS1"
category_label = "inactive"

[[record]]
compound = "O=C1Nc2ccccc2/C1=C/C(=O)c1ccc(N2CCCCC2)cc1"
category_label = "inactive"

[[record]]
compound = "CC1Cc2c(Cl)ncnc2N(C)c2ccc(O)cc21 (configuration not stated)"
category_label = "inactive"

[[record]]
compound = "CCCCC(CCCCCC(CCCC)C1NC(C)Cc2cc(OC)c(OC)cc21)C1NC(C)Cc2cc(OC)c(OC)cc21 (configuration not stated)"
category_label = "active"

[[record]]
compound = "O=C1Nc2ccccc2/C1=C/C(=O)c1ccc(N2CCOCC2)cc1"
category_label = "inactive"

[[record]]
compound = "O=C(O)CC1CCCCC1c1ccccc1 (configuration not stated)"
category_label = "inactive"

[[record]]
compound = "CCOC(CNC(=O)c1cccc([N+](=O)[O-])c1)OCC"
category_label = "inactive"

[[record]]
compound = "COc1ccc(/C=C/C(=C/c2c(O)[nH]c3cc(Br)ccc23)N=O)cc1"
category_label = "inactive"

[[record]]
compound = "C1=C[C@H]2O[C@@H]1c1ccc3[nH]ccc3c12"
category_label = "inactive"

[[record]]
compound = "O=[N+]([O-])c1cc([N+](=O)[O-])c(C(F)(F)F)cc1NN=C(c1ccc(O)cc1)c1ccc(O)cc1"
category_label = "active"

[[record]]
compound = "CCN1c2ccccc2C(Cl)(c2ccc(N(C)C)cc2)c2ccccc21"
category_label = "inactive"

[[record]]
compound = "CC(C)(C)c1cc(C(=O)Nc2ccccc2C(=O)NCCN)cc(C(C)(C)C)c1"
category_label = "active"

[[record]]
compound = "CCOC(=O)c1sc2nc(-c3cc(OC)c(OC)c(OC)c3)nc(N3CCOCC3)c2c1C"
category_label = "inactive"

[[record]]
compound = "C=C(C)[C@@H]1CC[C@]2(C(N)=O)CC[C@]3(C)[C@H](CC[C@@H]4[C@@]5(C)C/C(=C/c6cccnc6)[C@H](O)C(C)(C)[C@@H]5CC[C@]43C)[C@@H]12"
category_label = "inactive"

[[record]]
compound = "N#Cc1c(N2CCOCC2)nc(=S)[nH]c1-c1ccco1"
category_label = "inactive"

[[record]]
compound = "Cn1cc(-c2noc(-c3cn(C)c4ncc(F)cc34)n2)c2ccccc21"
category_label = "inactive"

[[record]]
compound = "O=C(Nc1cccc(F)c1)c1cc(=O)[nH]c2cc(Br)ccc12"
category_label = "inactive"


====

tested on: ACHN renal; test: NCI-60 one-dose screen, 48 h; conditions: 10 µM unless noted
Compounds without any hit were thinned out: in the full panel of roughly 83,000, 20% have a hit. Active and inactive are the calls of the source. The calls were made as follows: active = growth percent below 10; inactive = the rest.
Labels: active, inactive

[[record]]
smiles_data = "CCN1c2ccccc2C(Cl)(c2ccc(N(C)C)cc2)c2ccccc21"
category_label = "inactive"

[[record]]
smiles_data = "C=C(C)[C@@H]1CC[C@]2(C(=O)NCCNCCNCCN)CC[C@]3(C)[C@H](CC[C@@H]4[C@@]5(C)CC[C@H](O)C(C)(C)[C@@H]5CC[C@]43C)[C@@H]12"
category_label = "active"

[[record]]
smiles_data = "Cc1ccc(C2=C/C(=C/c3ccc(Br)cc3)C(=O)N2CCc2ccc(S(N)(=O)=O)cc2)cc1"
category_label = "inactive"

[[record]]
smiles_data = "COc1ccc(/C=C(/C2=NCCN2)n2ccc3ccccc32)cc1"
category_label = "inactive"

[[record]]
smiles_data = "CCN=C1C=CC(=C(c2ccc(N(CC)CC)cc2)c2ccc(N(CC)CC)cc2)c2ccccc21"
category_label = "active"

[[record]]
smiles_data = "Oc1ccc(N=Nc2nccs2)c(O)c1"
category_label = "inactive"

[[record]]
smiles_data = "O=C(Nc1cccc2cccnc12)c1cc(C(=O)c2ccc(Cl)cc2)n2ccc(-c3ccncc3)cc12"
category_label = "inactive"

[[record]]
smiles_data = "Cc1c(Cn2cc(COc3ccc(Br)cc3)nn2)c(C)c(Cn2cc(COc3ccc(Br)cc3)nn2)c(C)c1Cn1cc(COc2ccc(Br)cc2)nn1"
category_label = "inactive"

[[record]]
smiles_data = "Brc1ccc2c(c1)CN(C1CCCCC1)CO2"
category_label = "inactive"

[[record]]
smiles_data = "C#CCC(C(=O)OCC)C(=O)OCC"
category_label = "inactive"

[[record]]
smiles_data = "O=c1cc(-c2ccccc2)oc2c(O)c(O)ccc12"
category_label = "inactive"

[[record]]
smiles_data = "O=C1COCCN1c1ccc(NCc2cn(Cc3cccc4ccccc34)c3ccccc23)cc1"
category_label = "inactive"

